Where do these numbers come from? They come from patent US11285142B2.

# maps each entry to its Cytotox CC-v2 (dose response Curve Class)
- Tested on: Flp-In T-REx 293 cells expressing delta-E Torsin1a
- experiment summary: Cytotoxicity (cell count, cellular morphology) in the Torsin1a assay cell line
- Format: cell-based, human
- condition description: Table 6
Where a name gives a salt, the structure may show the parent alone.
parameter measured: Cytotox CC-v2 (dose response Curve Class)

# compound, test system, measured number
measured = [
    ("CC(C)CN(C[C@@H](O)[C@H](Cc1ccccc1)NC(=O)O[C@H]1CCOC1)S(=O)(=O)c1ccc(N)cc1", "Flp-In T-REx 293 cells expressing delta-E Torsin1a", 4),
    ("CC(C)(C)NC(=O)[C@@H]1CN(Cc2cccnc2)CCN1C[C@@H](O)C[C@@H](Cc1ccccc1)C(=O)N[C@H]1c2ccccc2C[C@H]1O [Indinavir sulfate]", "Flp-In T-REx 293 cells expressing delta-E Torsin1a", "−3"),
    ("COC(=O)N[C@H](C(=O)N[C@@H](Cc1ccccc1)[C@@H](O)CN(Cc1ccc(-c2ccccn2)cc1)NC(=O)[C@@H](NC(=O)OC)C(C)(C)C)C(C)(C)C", "Flp-In T-REx 293 cells expressing delta-E Torsin1a", 4),
]

====

Measured AC50 of individual entries
- Test system: Flp-In T-REx 293 cells expressing delta-E Torsin1a
- experiment summary: Cytotoxicity (cell count, cellular morphology) in the Torsin1a assay cell line
- Type: cell-based, human
- condition description: Table 6; read-out: Cytotox AC50
- Method: In order to test this model directly, the delta-E Torsin1a cell line was treated with compounds targeting the eIF2-alpha signaling pathway (FIG. 2). […] Efficacy is calculated as the magnitude of the pathology correction relative to the mutant Torsin1a pathology. […]
parameter measured: AC50 (µM)

# molecule, parameter measured, measured number
data = [
    ("Cc1cccc(C)c1OCC(=O)NC(CCC(Cc1ccccc1)NC(=O)C(C(C)C)N1CCCNC1=O)Cc1ccccc1 (centres unmarked) [Des-hydroxy Lopinavir]", "AC50", 20.9),
    ("CS(=O)(=O)O.Cc1c(O)cccc1C(=O)N[C@@H](CSc1ccccc1)[C@H](O)CN1C[C@H]2CCCC[C@H]2C[C@H]1C(=O)NC(C)(C)C.O [Nelfinavir mesylae hydrate]", "AC50", 6.05),
]

====

Readings of Cytotox CC-v2 (dose response Curve Class) for the listed compounds
- Test system: Flp-In T-REx 293 cells expressing delta-E Torsin1a
- experiment summary: Cytotoxicity (cell count, cellular morphology) in the Torsin1a assay cell line
- Type: cell-based, human
- condition description: Table 6
parameter measured: Cytotox CC-v2 (dose response Curve Class)

# compound, measured number
data = [
    ("Cc1cccc(C)c1OCC(=O)N[C@@H](Cc1ccccc1)[C@@H](O)C[C@H](Cc1ccccc1)NC(=O)[C@H](C(C)C)N1CCCNC1=O [Lopinavir, lopinavir]", "−3"),
    ("CC(C)c1nc(CN(C)C(=O)N[C@H](C(=O)N[C@@H](Cc2ccccc2)C[C@H](O)[C@H](Cc2ccccc2)NC(=O)OCc2cncs2)C(C)C)cs1 [Ritonavir, ritonavir]", 4),
    ("Cc1cccc(C)c1OCC(=O)NC(CCC(Cc1ccccc1)NC(=O)C(C(C)C)N1CCCNC1=O)Cc1ccccc1 (centres unmarked) [Des-hydroxy Lopinavir]", "−2.2"),
    ("Cc1c(O)cccc1C(=O)N[C@@H](CSc1ccccc1)[C@H](O)CN1C[C@H]2CCCC[C@H]2C[C@H]1C(=O)NC(C)(C)C [Viracept]", "−1.1"),
    ("CS(=O)(=O)O.Cc1c(O)cccc1C(=O)N[C@@H](CSc1ccccc1)[C@H](O)CN1C[C@H]2CCCC[C@H]2C[C@H]1C(=O)NC(C)(C)C.O [Nelfinavir mesylae hydrate]", "−1.1"),
]
